# target.under.test: Von Hippel-Lindau disease tumor suppressor/Elongin B/Elongin C (Homo sapiens)
# assay.notes: Displacement of JC-9 probe from recombinant VHL/Elongin C/Elogin B (unknown origin) using FAM-DEALA-Hyp-YIPMDDDFQLRSF as substrate assessed as dissociation constant by competitive fluorescence polarization assay
# Format: protein-complex assay
assay.endpoint: pKd
# log scale: pKd equals minus log10 of the concentration in mol/L

Query: pKd; subject: COc1ccc(C(=O)N2CCN(C[C@H]3CC[C@H](CSC(C)(C)[C@H](NC(=O)C4(F)CC4)C(=O)N4C[C@H](O)C[C@H]4C(=O)NCc4ccc(-c5scnc5C)cc4)CC3)CC2)cc1
6.23

Cool, now CSC(C)(C)[C@H](NC(=O)C1(F)CC1)C(=O)N1C[C@H](O)C[C@H]1C(=O)NCc1ccc(-c2scnc2C)cc1
6.39

###

# target.under.test: Von Hippel-Lindau disease tumor suppressor/Elongin B/Elongin C (Homo sapiens)
# assay.notes: Binding affinity to VHL/Elongin C/Elogin B (unknown origin) using FAM-DEALA-Hyp-YIPMDDDFQLRSF as substrate assessed as dissociation constant by fluorescence polarization assay
# Assay type: protein-complex assay
assay.endpoint: pKd
Quick note: pKd means taking -log10 of the concentration in moles per liter.

Can you look up the measured pKd of CNc1nc(Nc2ccc(C(=O)N3CCN(C[C@H]4CC[C@@H](CSC(C)(C)[C@H](NC(=O)C5(F)CC5)C(=O)N5C[C@H](O)C[C@H]5C(=O)NCc5ccc(-c6scnc6C)cc5)CC4)CC3)cc2OC)ncc1Cl for me?
6.80

###

Field: Kd. Provide a value for each of the compounds that follow.
# target.under.test: Von Hippel-Lindau disease tumor suppressor/Elongin B/Elongin C (Homo sapiens, UniProt P40337)
# Sequence (P40337 whole entry, looked up): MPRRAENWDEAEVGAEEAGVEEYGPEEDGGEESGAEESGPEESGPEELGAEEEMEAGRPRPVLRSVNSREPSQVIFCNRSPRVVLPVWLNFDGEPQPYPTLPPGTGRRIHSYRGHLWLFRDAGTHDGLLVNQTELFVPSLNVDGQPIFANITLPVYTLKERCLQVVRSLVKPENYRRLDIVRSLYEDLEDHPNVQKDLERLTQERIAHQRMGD
# assay.notes: Displacement of JC-9 probe from recombinant VHL/Elongin C/Elogin B (unknown origin) using FAM-DEALA-Hyp-YIPMDDDFQLRSF as substrate assessed as dissociation constant by competitive fluorescence polarization assay
# Type: protein-complex assay
Write the value in nM as a bare number.

If you can, please state the reported Kd value of Cc1ncsc1-c1ccc(CNC(=O)[C@@H]2C[C@@H](O)CN2C(=O)[C@@H](NC(=O)C2(F)CC2)C(C)(C)SC[C@H]2CC[C@H](CN3CCOCC3)CC2)cc1 .
540

What about Cc1ncsc1-c1ccc(CNC(=O)[C@@H]2C[C@@H](O)CN2C(=O)[C@@H](NC(=O)C2(F)CC2)C(C)(C)SC[C@H]2CC[C@@H](CN(C)C)CC2)cc1 ?
313

Also COc1ccc(C(=O)N2CCN(C[C@H]3CC[C@@H](CSC(C)(C)[C@H](NC(=O)C4(F)CC4)C(=O)N4C[C@H](O)C[C@H]4C(=O)NCc4ccc(-c5scnc5C)cc4)CC3)CC2)cc1 ?
260

Data origin: ChEMBL document CHEMBL5584252
